The following compounds are listed with their measured GI50 values.
- Test system: HCT-116
- assay-procedure: NCI tumour cell line growth inhibition, 48 h
The source made the active and inactive calls. Rule as the data show it: active = GI50 up to about 1.1 µM and inactive = higher.

{"compound": "Nc1ccccc1C(=O)/C=C/c1ccccc1O", "target-of-assay": "HCT-116", "GI50": "38.2 µM (inactive)"}

State its GI50 on HCT-116: CCCCCCCCC/C=C1/CC(CO)(COC(=O)c2ccccc2)OC1=O (stereo unspecified) 23.2 µM (inactive)

State its GI50 on HCT-116: `CC(=O)c1ccc(Br)cc1NC1=CC(=O)c2ncccc2C1=O` 1.9 µM (inactive)

State its GI50 on HCT-116: `c1ccc(-c2nc(-c3ccccc3)c(-c3ccccc3)[nH]2)cc1` 71.9 µM (inactive)

State its GI50 on HCT-116: CC(=O)ON(C(C)=O)C1C(COC(c2ccccc2)(c2ccccc2)c2ccccc2)OC2OC3(CCCC3)OC21 (stereo unspecified) 5.45 µM (inactive)

State its GI50 on HCT-116: `Oc1ccc(C(c2ccc(O)cc2)c2ccc(O)cc2)cc1` 16.8 µM (inactive)

State its GI50 on HCT-116: C=C1C(=O)OC2CC(C)C3C=CC(=O)C3CC12 (stereo unspecified) 1.26 µM (inactive)

State its GI50 on HCT-116: C/C=C1\CN2CCC34c5ccccc5N(C)C35OCC4(C(=O)OC)C1CC25 (stereo unspecified) 36.6 µM (inactive)
